assay: StAR promoter reporter inhibitors, counter-screen for LRH-1 inverse agonist project, cell-based, luminescence, high throughput (AID 651611); conditions: StAR promoter luciferase reporter counterscreen, at 3.6 µM, active compounds read high
Item-by-item account of inhibition
Kindly answer with a numeric value in %, unit omitted.

Solved entries:
Molecule	Output Unit	Value Measured
C[C@@H]1O[C@@H](O[C@@H]2C=C3CC[C@@H]4C(CC[C@]5(C)[C@@H](c6ccc(=O)oc6)CC[C@]45O)[C@@]3(C)CC2)[C@H](O)[C@H](O)[C@H]1O (some centres undefined)	%	97.1
Cn1cc(NC(=O)CCl)cn1	%	41
CCOC(=O)[C@]12Cc3cc(Cl)ccc3[C@H]1N(C1CCCCC1)C(=O)c1ccccc12	%	80.2

# input for lookup
Entry under test: CC(=O)O[C@H]1C[C@@H]2OC3C=C(C)CCC3(C)[C@@]1(C)[C@@]21CO1 (some centres undefined) . Its inhibition was 95.6

----------
assay: VP16 transactivation inhibitors, counter-screen for SRC1 inhibitor project, cell-based, luminescence, high throughput (AID 588824); settings: cell-based VP16 transactivation luciferase luminescence; at 3.6 µM
Activity calls are given as the source filed them. Rule as the data show it: active = inhibition above about 25%; inactive = the rest.
One label from this list, please: true (active), false (inactive)

Worked cases, answers included:
Compound	Answer Label
CC(C)c1oc(=O)cc2c1[C@@H](O)[C@H]1OC(=O)[C@@]3(C)CC[C@@H](O)[C@@]2(C)C13 (stereo not given in full)	false
N#CC(C#N)=NNc1ccc(-n2ccc(C(F)(F)F)n2)cc1	true
C[C@]12CC[C@H]3[C@@H](CC[C@]4(O)C[C@@H](O)CC[C@]34C=O)[C@@]1(O)CC[C@@H]2C1=CC(=O)OC1	true
COC1C(O)C(C)OC(OC2CCC3(C=O)C(CCC4C3CCC3(C)C(C5=CC(=O)OC5)CCC43O)C2)C1O (stereo not given)	true

Input line: What call does the record list for COc1cccc(C(c2nnnn2Cc2ccccc2)N2CCC(n3c(=O)[nH]c4ccccc43)CC2)c1OC (stereo not given) ?
Output line: false

----------
assay: VP16 transactivation inhibitors, counter-screen for SRC1 inhibitor project, cell-based, luminescence, high throughput (AID 588824); settings: cell-based VP16 transactivation luciferase luminescence; at 3.6 µM; active compounds read high
Give class 1 when the value for inhibition is at least 30%. Give class 0 when it is less.

Compound	Answer Label
COC1CC2C=C(C)C=CC=CC(=O)NC(c3ccccc3)CC=CCCC(O)CC(=O)C2=C1O (stereo not drawn)	class 1
COC(=O)C1=C(c2ccc(-c3ccccc3)c(F)c2)C[C@@H]2CC[C@H]1N2C(=O)N1CCOCC1	class 0
CCCCN=C[C@]12CCC(O)CC1(O)CCC1[C@@H]2CC[C@]2(C)[C@H](C3C=CC(=O)O3)CCC12O (stereo partly drawn)	class 1
COc1ccc(CC2C(=O)NC(C)C(=O)N(C)C3C(=O)N(C)C(Cc4ccc(O)c(c4)Oc4ccc(cc4)C3O)C(=O)NC(C)C(=O)NC(C)C(=O)N2C)cc1 (stereo not drawn)	class 1
COc1cccc2cc(-c3cc(=O)oc4ccc(OC(=O)N(C)C)cc34)oc12	class 0
C=C1C(=O)O[C@@H]2C[C@@H](C)[C@@H]3C=CC(=O)[C@@]3(C)[C@@H](OC(=O)CC(=O)O[C@H]3[C@@H]4C(=C)C(=O)O[C@@H]4C[C@@H](C)[C@@H]4C=CC(=O)[C@]43C)[C@H]12	class 1

Input line: Please tell me: is the compound Cc1ccc2c(C)c3ccc4ccccc4c3c[n+]2c1 at or over 30% in terms of inhibition?
Output line: class 1

----------
biological target: Protein phosphatase methylesterase 1 (Homo sapiens) (UniProt Q9Y570); experiment: PME-1 inhibitor activity retest, confirmation, biochemical, fluorescence polarization, FP-Rh probe, triplicate (AID 2171); conditions: recombinant PME-1, FP-Rh probe fluorescence polarization; at 5.9 µM; active compounds read high;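 further: 0% = enzyme with DMSO and 100% = wells lacking PME-1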
Sequence (Q9Y570 whole entry, looked up): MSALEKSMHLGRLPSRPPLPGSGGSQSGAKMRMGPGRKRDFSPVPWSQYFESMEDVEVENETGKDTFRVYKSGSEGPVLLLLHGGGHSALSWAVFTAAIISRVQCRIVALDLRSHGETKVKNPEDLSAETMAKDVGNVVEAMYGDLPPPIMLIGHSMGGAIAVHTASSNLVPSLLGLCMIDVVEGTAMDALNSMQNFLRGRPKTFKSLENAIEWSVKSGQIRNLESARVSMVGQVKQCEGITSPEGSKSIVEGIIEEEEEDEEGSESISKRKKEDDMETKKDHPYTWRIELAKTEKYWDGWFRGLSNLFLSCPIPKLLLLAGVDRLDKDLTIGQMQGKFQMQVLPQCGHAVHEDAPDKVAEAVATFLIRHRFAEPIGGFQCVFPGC
Think of 20% as a floor: if inhibition stands on it or above, it is t; beneath it, f.

Below are worked cases with known answers.
Compound	Answer Label
Oc1ccc(/C=N/NP(=S)(c2ccccc2)c2ccccc2)c(O)c1O	f
COc1cccc(OC)c1C1=NCC(=O)Nc2c1oc1ccc(Br)cc21	t
CCCCn1c(C)c(C(=O)OCC)c2c(CN3CCCC3)c(O)ccc21	f
COc1ccc(-n2c(/C=C/c3ccc(O)c(O)c3)nc3ccccc3c2=O)cc1	f
CN(C)C1(c2nnnn2CCOC(=O)Nc2ccc(Cl)cc2)CCCCC1	t

Input line: Could you please find out whether COc1ccc(C(O)P(=O)(Oc2ccccc2)Oc2ccccc2)cc1 (configuration not stated) has inhibition that meets 20% or exceeds it?
Output line: t

Input line: State whether the measured inhibition reaches 20%, counting equality as reaching it, for C[n+]1c(-c2ccccc2)c2cc(N)ccc2c2ccc(N)cc21
Output line: t

Input line: // inclusive: inhibition at least 20%? input: Nc1c(C(=O)NCc2ccco2)c2nc3ccccc3nc2n1CCN1CCOCC1
Output line: f

Input line: Does inhibition meet or surpass 20% for CC(=O)c1ccc2c(c1)C1C(Cl)C(Sc3ccccc3[N+](=O)[O-])CC1C(c1ccccc1)N2 (configuration not stated) ?
Output line: t

----------
target: Nuclear receptor subfamily 5 group A member 2 (Homo sapiens) (UniProt O00482); experiment: LRH-1 (NR5A2) inverse agonists, retest, confirmation, cell-based, luminescence (AID 651613); conditions: cell-based LRH-1 luciferase reporter, inverse agonism; at 3.6 µM; active compounds read high;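 further: HEK293T cells co-transfected with LRH-1 and StAR promoter luciferase reporter; 0% = vehicle wells and 100% = parental cells lacking receptor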
Sequence (O00482 whole entry, looked up): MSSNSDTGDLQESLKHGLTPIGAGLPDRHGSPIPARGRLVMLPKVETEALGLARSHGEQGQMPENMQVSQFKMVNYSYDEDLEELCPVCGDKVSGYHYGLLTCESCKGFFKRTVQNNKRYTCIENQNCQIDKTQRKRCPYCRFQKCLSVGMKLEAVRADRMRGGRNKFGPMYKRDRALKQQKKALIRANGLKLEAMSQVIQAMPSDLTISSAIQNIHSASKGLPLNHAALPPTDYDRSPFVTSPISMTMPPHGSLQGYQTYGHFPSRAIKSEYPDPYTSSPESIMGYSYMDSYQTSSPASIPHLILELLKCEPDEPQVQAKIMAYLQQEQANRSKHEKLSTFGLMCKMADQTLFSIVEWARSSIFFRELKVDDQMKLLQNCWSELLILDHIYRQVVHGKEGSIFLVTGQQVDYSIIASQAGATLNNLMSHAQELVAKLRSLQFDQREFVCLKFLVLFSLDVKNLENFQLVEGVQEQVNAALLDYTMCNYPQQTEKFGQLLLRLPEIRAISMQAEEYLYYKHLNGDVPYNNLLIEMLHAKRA
Outcome Measure: inhibition (%)
Numbers only; they are read as %.

Examples with answers:
Compound	Outcome Measure	Output Unit	Value Measured
Cc1cc(OC(=O)c2ccco2)c2c3c(c(=O)oc2c1)CCCC3	inhibition	%	56
O=c1[nH]c2ccccc2n1C1CCN(Cc2ccc(-c3[nH]c4cc5ncnc5cc4nc3-c3ccccc3)cc2)CC1	inhibition	%	64.2
Cc1ccc(-c2cc(-c3ccc(C)cc3)[n+](C)o2)cc1	inhibition	%	78.7

// inhibition value for O=c1[nH]c2ccccc2n1C1CCN(C(c2cccc3ccccc23)c2nnnn2-c2ccc3c(c2)OCCO3)CC1 (centres undefined) : 27.6

Short answer for O=C(Nc1ccc(OC(=O)N2CCCCC2)cc1)N1CCOCC1 : inhibition was 19.7

// recorded inhibition for CC(N)C(=O)NC1C2C(=C(O)CC(O)C2O)C(=O)OC1(C)C(Cl)Cl (centres undefined) : 110

Data point: COC(=O)C(C)Oc1cc(C)cc2oc(=O)c3c(c12)CCCC3 (centres undefined) ; inhibition = 63.3

Sure, the documented inhibition for CC1=CC2OC3CC4OC(=O)C=CC=CC(C(C)O)OCC(O)C(C)CC(=O)OCC2(CC1O)C4(C)C31CO1 (centres undefined) is 108

Lab note: measured inhibition of Cc1ccc(-n2nc(C)cc2NC(=O)COc2cc(C)cc3oc(=O)c4c(c23)CCC4)cc1 was 60.3

----------
molecular target: Nuclear receptor coactivator 3 (Homo sapiens) (UniProt Q9Y6Q9); assay: SRC3 coactivator transcriptional activity inhibitors, confirmation, cell-based, luminescence, quadruplicate (AID 588792); details: HEK293 GAL4-SRC3 luciferase reporter, at 3.6 µM, active compounds read high;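 further: 0% = DMSO treated cells and 100% = gossypol at 36 µM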
Sequence (Q9Y6Q9 whole entry, looked up, the tested form may be a part): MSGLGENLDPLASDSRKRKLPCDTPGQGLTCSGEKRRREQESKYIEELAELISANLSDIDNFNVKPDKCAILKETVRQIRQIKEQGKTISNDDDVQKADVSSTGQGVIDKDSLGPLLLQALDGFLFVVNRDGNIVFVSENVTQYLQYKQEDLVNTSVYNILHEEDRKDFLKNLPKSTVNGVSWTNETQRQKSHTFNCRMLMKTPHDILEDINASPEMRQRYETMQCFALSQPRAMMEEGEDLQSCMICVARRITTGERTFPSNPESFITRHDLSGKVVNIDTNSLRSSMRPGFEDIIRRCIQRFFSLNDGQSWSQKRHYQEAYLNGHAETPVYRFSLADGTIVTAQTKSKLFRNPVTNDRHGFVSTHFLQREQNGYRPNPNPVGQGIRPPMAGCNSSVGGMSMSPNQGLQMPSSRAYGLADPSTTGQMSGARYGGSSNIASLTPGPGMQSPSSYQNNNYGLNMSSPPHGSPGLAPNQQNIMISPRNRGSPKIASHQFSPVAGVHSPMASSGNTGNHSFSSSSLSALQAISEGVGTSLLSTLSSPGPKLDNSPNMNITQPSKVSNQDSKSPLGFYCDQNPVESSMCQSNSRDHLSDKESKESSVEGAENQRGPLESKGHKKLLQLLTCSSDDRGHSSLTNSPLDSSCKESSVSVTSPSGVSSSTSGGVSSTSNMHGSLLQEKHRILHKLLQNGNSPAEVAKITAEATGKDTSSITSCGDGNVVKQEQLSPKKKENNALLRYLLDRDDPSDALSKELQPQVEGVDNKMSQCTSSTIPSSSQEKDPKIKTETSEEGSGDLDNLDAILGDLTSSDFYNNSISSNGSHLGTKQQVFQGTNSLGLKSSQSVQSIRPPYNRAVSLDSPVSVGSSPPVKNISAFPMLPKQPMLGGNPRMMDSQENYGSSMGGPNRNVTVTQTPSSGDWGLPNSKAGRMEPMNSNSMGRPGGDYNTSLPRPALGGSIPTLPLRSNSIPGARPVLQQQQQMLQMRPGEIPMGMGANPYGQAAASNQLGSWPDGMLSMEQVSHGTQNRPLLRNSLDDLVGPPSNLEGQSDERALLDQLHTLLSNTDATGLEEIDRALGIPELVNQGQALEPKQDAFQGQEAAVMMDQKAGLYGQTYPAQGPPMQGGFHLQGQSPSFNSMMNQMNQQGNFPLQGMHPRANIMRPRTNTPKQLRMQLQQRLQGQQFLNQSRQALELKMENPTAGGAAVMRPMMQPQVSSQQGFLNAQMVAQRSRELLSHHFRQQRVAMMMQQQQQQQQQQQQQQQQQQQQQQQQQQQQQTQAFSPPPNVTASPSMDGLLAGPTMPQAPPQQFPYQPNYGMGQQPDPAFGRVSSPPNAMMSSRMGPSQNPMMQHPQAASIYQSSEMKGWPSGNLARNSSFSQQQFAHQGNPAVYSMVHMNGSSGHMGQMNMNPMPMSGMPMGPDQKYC
The following molecules are shown together with reported inhibition values.
Record the value in %, omitting the unit from your answer.

Molecule	inhibition (%)
CN1CCN(c2ccc([N+](=O)[O-])c3no[n+]([O-])c23)CC1	98.6
C[C@@H]1O[C@@H](O[C@@H]2C=C3CCC4C(CC[C@]5(C)[C@@H](c6ccc(=O)oc6)CC[C@]45O)[C@@]3(C)CC2)[C@H](O)[C@H](O)[C@H]1O (some centres undefined)	97.5
O=c1[nH]c2ccccc2n1C1CCN(C(c2nnnn2Cc2ccccc2)C2CC2)CC1 (centres undefined)	22.8

Per the records, this molecule ( Cc1ccc(-c2cc(-c3ccc(C)cc3)[n+](-c3ccccc3)c(-c3ccc(C)cc3)c2)cc1 ) has inhibition equal to 79.8

COc1cc2cc(C(=O)N3CC(COS(C)(=O)=O)c4ccc(O)cc43)[nH]c2c(OC)c1OC (centres undefined) yielded inhibition of 97.5

Measured inhibition of O=c1[nH]c2ccccc2n1C1CCN(C(CCc2ccccc2)c2nnnn2C2CCCC2)CC1 (centres undefined) : 23.4

Recorded inhibition (molecule COc1cccc(C(c2nnnn2-c2ccc3c(c2)OCCO3)N2CCC(n3c(=O)[nH]c4ccccc43)CC2)c1OC (centres undefined) ): 26.6

----------
target: Nuclear receptor coactivator 2 (Homo sapiens) (UniProt Q15596); assay: SRC2 coactivator transcriptional activity inhibitors, confirmation, cell-based, luminescence, HEK293, triplicate (AID 652008); conditions: HEK293 GAL4-SRC2 luciferase reporter, at 8.9 µM, active compounds read high;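 further: 0% = DMSO-treated cells and 100% = Gossypol at 36 µM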
Sequence (Q15596 whole entry, looked up, the tested form may be a part): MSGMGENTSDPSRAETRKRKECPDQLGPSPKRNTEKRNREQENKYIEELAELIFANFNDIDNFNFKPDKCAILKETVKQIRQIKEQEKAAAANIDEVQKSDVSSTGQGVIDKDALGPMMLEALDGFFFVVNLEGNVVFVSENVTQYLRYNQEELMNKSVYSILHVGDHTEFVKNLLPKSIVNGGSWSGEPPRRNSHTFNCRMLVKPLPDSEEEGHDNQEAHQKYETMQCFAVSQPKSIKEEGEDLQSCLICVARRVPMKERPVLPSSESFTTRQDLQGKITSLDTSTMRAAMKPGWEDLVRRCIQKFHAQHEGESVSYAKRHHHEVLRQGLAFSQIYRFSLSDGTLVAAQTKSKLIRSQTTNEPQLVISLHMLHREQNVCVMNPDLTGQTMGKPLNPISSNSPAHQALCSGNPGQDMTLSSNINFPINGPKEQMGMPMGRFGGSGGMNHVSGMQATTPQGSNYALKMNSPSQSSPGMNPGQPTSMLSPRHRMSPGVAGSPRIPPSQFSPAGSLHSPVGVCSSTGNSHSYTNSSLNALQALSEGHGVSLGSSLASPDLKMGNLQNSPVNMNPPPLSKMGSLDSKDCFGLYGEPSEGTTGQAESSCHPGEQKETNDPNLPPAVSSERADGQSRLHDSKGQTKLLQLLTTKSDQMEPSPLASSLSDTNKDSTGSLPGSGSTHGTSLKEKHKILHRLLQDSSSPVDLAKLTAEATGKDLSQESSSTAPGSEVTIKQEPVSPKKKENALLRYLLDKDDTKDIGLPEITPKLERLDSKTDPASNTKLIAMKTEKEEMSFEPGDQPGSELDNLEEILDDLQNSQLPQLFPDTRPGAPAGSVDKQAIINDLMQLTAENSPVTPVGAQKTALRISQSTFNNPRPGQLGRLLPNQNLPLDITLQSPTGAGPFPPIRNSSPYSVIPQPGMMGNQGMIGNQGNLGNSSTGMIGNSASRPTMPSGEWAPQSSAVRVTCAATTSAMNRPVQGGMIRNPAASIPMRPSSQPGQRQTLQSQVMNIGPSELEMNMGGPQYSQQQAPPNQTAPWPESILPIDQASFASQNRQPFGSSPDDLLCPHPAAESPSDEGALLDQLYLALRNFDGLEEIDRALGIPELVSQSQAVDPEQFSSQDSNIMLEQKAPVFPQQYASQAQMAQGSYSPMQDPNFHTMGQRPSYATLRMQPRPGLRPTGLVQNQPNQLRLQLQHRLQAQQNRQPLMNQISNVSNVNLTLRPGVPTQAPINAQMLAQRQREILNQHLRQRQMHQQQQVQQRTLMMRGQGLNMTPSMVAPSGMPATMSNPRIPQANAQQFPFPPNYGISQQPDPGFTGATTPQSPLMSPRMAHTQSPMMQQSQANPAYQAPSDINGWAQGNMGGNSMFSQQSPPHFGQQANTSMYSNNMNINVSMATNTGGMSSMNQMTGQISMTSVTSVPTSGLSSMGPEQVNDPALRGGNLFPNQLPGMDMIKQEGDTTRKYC
inhibition values by entry
Answer in %, number only, no unit symbol.

Compound	Outcome Measure	Value Measured
CC(C)(O)/C=C/C(=O)C(C)(O)C1C(O)CC2(C)C3CC=C4C(C=C(O)C(=O)C4(C)C)C3(C)C(=O)CC12C (stereo not drawn)	inhibition	96.5
CC(=O)OC1CC2OC3C=C(C)CCC3(C)C1(C)C21CO1 (stereo not drawn)	inhibition	76.1
O=C1NC(=O)N(Cc2ccco2)C(=O)/C1=C/C=C/c1ccco1	inhibition	-57.3

// inhibition lookup, compound = CC(=O)OC(C)(C)/C=C/C(=O)C(C)(O)C1[C@H](O)C[C@@]2(C)C3CC=C4C(CC[C@@H](O)C4(C)C)[C@]3(CO)C(=O)C[C@]12C (stereo partly drawn) , result: 55.2

# compound COc1ccc(S(=O)(=O)N2Cc3cnnn3-c3ccccc3C2C#N)cc1 (stereo not drawn) ; its inhibition = -21

inhibition measured on CC1=CC2OC3CC4OC(=O)C=CC=CC(C(C)O)OCC(O)C5(C)OC5C(=O)OCC2(CC1O)C4(C)C31CO1 (stereo not drawn) = 73.5

// field: inhibition; key: O=C1NC2C(=CC(O)C(O)C2O)c2cc3c(c(O)c21)OCO3 (stereo not drawn) ; value = 75.6

Value of measured inhibition for the entry CC(=O)OC1CC2(O)C3CCC4CC(O)CCC4(C)C3CCC2(C)C1C1=CC(=O)OC1 (stereo not drawn) : 45.1

Cited source: PubChem BioAssay
